# Target Or Test System: Gamma-aminobutyric acid receptor subunit alpha-1 (Rattus norvegicus, UniProt P62813); note: assay procedure not described here
# Sequence (P62813 whole entry): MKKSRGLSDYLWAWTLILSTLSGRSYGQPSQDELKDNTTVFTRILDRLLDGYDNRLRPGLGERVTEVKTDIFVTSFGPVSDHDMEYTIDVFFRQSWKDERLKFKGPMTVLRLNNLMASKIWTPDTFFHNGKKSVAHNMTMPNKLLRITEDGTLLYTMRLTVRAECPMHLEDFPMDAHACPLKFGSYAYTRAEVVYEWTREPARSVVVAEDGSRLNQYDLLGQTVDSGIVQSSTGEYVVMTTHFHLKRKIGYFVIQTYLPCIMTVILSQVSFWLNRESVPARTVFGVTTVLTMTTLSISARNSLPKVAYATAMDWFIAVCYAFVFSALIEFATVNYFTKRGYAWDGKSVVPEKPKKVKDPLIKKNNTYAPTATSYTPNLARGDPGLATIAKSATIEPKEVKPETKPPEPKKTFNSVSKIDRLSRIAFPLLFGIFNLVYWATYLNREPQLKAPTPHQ
# Assay type: functional
Measured Attribute: AC50

Entry CCCCCNC(=N)N/N=C/c1c[nH]c2ccc(OC)cc12 [TEGASEROD] ; AC50 = 13 µM

Data point: C=CCC1(CC(C)C)C(=O)NC(=O)NC1=O [BUTALBITAL] ; AC50 = > 10 µM

The compound CC(C)C[C@H]1C(=O)N2CCC[C@H]2[C@]2(O)O[C@](NC(=O)[C@@H]3C=C4c5cccc6[nH]c(Br)c(c56)C[C@H]4N(C)C3)(C(C)C)C(=O)N12 [BROMOCRIPTINE] showed AC50 equal to > 30 µM

###

# Target Or Test System: Vasopressin V1a receptor (Homo sapiens); note: assay procedure not described here
# Sequence (P37288 whole entry): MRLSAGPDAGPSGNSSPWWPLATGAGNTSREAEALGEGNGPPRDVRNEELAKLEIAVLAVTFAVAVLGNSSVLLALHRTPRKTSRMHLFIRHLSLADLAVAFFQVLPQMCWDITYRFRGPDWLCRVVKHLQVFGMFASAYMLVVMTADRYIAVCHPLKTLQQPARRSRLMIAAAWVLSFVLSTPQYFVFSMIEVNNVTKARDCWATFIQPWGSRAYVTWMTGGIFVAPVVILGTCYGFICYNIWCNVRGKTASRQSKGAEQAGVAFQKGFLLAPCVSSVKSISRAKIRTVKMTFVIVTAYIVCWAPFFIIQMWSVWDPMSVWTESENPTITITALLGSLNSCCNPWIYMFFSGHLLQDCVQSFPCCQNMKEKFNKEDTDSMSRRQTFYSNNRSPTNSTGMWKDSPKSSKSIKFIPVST
This listing pairs compounds with measured AC50.

Here is how some compounds turned out for AC50.
CC1=C(C(=O)O)N2C(=O)[C@@H](NC(=O)[C@H](N)c3ccccc3)[C@H]2SC1 [CEPHALEXIN ANHYDROUS] = > 10 µM
CC(C(=O)O)c1ccc(N2Cc3ccccc3C2=O)cc1 (centres undefined) [INDOPROFEN] = > 30 µM
CCC(C(=O)O)c1ccc(N2Cc3ccccc3C2=O)cc1 (centres undefined) [INDOBUFEN] = > 30 µM

The value of AC50 recorded for COc1cc2nc(N(C)CCCNC(=O)C3CCCO3)nc(N)c2cc1OC (centres undefined) [ALFUZOSIN] when tested on Vasopressin V1a receptor (Homo sapiens) reads > 30 µM

For CN(C)CCC=C1c2ccccc2C=Cc2ccccc21 [CYCLOBENZAPRINE] on Vasopressin V1a receptor (Homo sapiens), measured AC50 was > 30 µM

###

# collection of AC50 values tested on UniProt P23975
# Sequence (P23975 whole entry): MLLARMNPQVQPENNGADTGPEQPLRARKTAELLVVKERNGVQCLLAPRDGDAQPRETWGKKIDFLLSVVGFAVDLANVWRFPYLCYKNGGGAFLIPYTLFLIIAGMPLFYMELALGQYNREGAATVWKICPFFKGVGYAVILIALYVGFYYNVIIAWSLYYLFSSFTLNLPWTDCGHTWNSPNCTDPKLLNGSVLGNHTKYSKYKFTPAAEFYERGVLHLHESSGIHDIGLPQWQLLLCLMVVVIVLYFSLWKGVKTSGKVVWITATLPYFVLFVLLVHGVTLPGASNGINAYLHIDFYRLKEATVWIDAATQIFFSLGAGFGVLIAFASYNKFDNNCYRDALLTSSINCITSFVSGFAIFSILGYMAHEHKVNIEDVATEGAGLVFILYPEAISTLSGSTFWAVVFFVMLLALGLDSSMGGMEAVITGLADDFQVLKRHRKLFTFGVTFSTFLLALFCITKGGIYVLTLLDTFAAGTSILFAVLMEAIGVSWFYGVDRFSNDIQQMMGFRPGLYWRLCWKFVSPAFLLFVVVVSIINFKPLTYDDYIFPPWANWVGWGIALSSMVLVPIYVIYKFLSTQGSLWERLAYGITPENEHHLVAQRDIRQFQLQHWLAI

// below: answered compounds
CCOC(=O)[C@H](CCc1ccccc1)N[C@@H](C)C(=O)N1CC2(C[C@H]1C(=O)O)SCCS2 = > 30 µM
NCC(CC(=O)O)c1ccc(Cl)cc1 (stereo not drawn) = > 30 µM
C[C@]12CC[C@@H]3c4ccc(O)cc4CC[C@H]3[C@@H]1C[C@@H](O)[C@@H]2O = > 30 µM

Attention now shifts to the item below.
Entry COCCCN1CCC(NC(=O)c2cc(Cl)c(N)c3c2OCC3)CC1 [PRUCALOPRIDE] : AC50 on UniProt P23975 = > 30 µM

###

Documented AC50 across a set of molecules
# Target Or Test System: Sodium-dependent serotonin transporter (Homo sapiens); note: assay procedure not described here
# Sequence (P31645 whole entry): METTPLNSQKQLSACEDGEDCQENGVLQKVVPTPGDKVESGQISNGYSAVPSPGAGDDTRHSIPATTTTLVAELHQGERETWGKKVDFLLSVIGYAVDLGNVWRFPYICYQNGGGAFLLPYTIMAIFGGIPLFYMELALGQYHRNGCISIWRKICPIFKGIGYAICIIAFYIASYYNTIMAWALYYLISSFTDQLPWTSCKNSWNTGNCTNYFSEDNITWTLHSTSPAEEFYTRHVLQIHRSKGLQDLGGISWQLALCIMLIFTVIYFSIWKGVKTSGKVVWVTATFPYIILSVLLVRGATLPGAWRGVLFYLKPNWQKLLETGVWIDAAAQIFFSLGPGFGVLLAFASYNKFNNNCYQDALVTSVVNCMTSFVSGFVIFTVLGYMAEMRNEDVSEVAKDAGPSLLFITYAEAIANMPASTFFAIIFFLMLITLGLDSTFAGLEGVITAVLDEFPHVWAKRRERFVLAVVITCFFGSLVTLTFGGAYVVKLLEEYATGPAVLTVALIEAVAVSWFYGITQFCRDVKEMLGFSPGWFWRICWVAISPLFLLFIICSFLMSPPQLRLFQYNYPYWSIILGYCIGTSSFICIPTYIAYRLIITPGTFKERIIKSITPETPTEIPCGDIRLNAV

CC(C(=O)O)c1ccc(N2Cc3ccccc3C2=O)cc1 (stereo unspecified) = > 30 µM
Fc1ccc(C(c2ccccc2)(c2ccccc2F)n2ccnc2)cc1 (stereo unspecified) = > 30 µM
O=C(O)CCCCCCNC1c2ccccc2CCc2ccccc21 = > 30 µM
CC(C)(C)NCC(O)COc1cccc2c1CCC(=O)N2 (stereo unspecified) = > 10 µM
O=C(O)[C@H](CC(=O)N1C[C@H]2CCCC[C@H]2C1)Cc1ccccc1 [MITIGLINIDE] = > 10 µM

// AC50 value for CN1C(=O)CCS(=O)(=O)C1c1ccc(Cl)cc1 (stereo unspecified) : > 10 µM

Lab note: C=CCC1(C(C)CC)C(=O)NC(=O)NC1=O (stereo unspecified) gave AC50 of > 10 µM

For this molecule ( CNC(C)CCC=C(C)C (stereo unspecified) ), measured AC50 is > 30 µM

The reported AC50 of the molecule CO[C@@H]1[C@@H](O[C@@H]2O[C@H](C)[C@@H](O[C@H]3C[C@@](C)(O)[C@@H](OC(=O)CC(C)C)[C@H](C)O3)[C@H](N(C)C)[C@H]2O)[C@@H](CC=O)C[C@@H](C)[C@@H](O)/C=C/C=C/C[C@@H](C)OC(=O)C[C@H]1OC(C)=O was > 10 µM

Lab note: measured AC50 of Cc1ccc(-n2nccn2)c(C(=O)N2CCN(c3nc4cc(Cl)ccc4o3)CC[C@H]2C)c1 was > 30 µM

Entry C#C[C@]1(O)CC[C@H]2[C@@H]3CCc4cc(OC5CCCC5)ccc4[C@H]3CC[C@@]21C — recorded AC50 = > 10 µM

In plain terms, CN1CCC(=C2c3ccccc3CCc3sccc32)CC1 has a documented AC50 of 8.88 µM

Kindly note the recorded AC50 for Cc1nc([N+](=O)[O-])cn1-c1ccc([N+](=O)[O-])cc1 , which is > 30 µM

###

What follows is a collection of AC50 values obtained with Sodium-dependent dopamine transporter (Homo sapiens, UniProt Q01959).
Sequence (Q01959 whole entry): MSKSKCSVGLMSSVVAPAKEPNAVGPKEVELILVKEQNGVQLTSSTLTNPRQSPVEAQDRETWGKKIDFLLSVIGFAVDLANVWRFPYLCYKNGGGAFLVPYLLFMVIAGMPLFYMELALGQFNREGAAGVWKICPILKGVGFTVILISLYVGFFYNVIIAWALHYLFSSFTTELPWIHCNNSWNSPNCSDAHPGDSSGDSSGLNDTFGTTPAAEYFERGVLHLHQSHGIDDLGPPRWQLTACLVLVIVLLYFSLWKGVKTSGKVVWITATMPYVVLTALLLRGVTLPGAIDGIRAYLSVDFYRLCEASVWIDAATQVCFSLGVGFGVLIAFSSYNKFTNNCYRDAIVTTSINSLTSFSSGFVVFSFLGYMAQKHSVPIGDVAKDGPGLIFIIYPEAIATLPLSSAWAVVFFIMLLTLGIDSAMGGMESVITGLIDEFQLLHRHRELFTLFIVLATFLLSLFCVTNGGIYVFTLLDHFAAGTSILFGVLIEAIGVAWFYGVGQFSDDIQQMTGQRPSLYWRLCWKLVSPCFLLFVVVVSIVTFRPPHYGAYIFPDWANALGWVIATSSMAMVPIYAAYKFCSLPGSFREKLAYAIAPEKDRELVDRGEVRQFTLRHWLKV

CO/N=C(\C(=O)N[C@@H]1C(=O)N2C(C(=O)O)=C(CSc3nnnn3C)CS[C@H]12)c1csc(N)n1 = > 30 µM
CC1(C)O[C@@H]2C[C@H]3[C@@H]4CCC5=CC(=O)C=C[C@]5(C)[C@H]4[C@@H](O)C[C@]3(C)[C@]2(C(=O)CO)O1 [DESONIDE] = > 10 µM
Cc1ccc(-c2cc(C(F)(F)F)nn2-c2ccc(S(N)(=O)=O)cc2)cc1 = 5.86 µM
CN1C(=O)C(O)N=C(c2ccccc2)c2cc(Cl)ccc21 (configuration not stated) = > 10 µM

Form field AC50 for item CC[C@H]1OC(=O)[C@H](C)[C@@H](O[C@H]2C[C@@](C)(OC)[C@@H](O)[C@H](C)O2)[C@H](C)[C@@H](O[C@@H]2O[C@H](C)C[C@H](N(C)C)[C@H]2O)[C@](C)(O)C[C@@H](C)CN(C)[C@H](C)[C@@H](O)[C@]1(C)O on Sodium-dependent dopamine transporter (Homo sapiens, UniProt Q01959): > 10 µM

AC50 on Sodium-dependent dopamine transporter (Homo sapiens, UniProt Q01959) for CS(=O)(=O)c1ccc(C2=C(c3ccccc3)C(=O)OC2)cc1 is > 10 µM

I looked up Nc1nc(N)nc(-c2cc(Cl)ccc2Cl)n1 and its AC50 for Sodium-dependent dopamine transporter (Homo sapiens, UniProt Q01959) was > 30 µM

###

Examples of compounds with documented AC50 follow.
# Target Or Test System: D(1A) dopamine receptor (Homo sapiens); note: assay procedure not described here
# Sequence (P21728 whole entry): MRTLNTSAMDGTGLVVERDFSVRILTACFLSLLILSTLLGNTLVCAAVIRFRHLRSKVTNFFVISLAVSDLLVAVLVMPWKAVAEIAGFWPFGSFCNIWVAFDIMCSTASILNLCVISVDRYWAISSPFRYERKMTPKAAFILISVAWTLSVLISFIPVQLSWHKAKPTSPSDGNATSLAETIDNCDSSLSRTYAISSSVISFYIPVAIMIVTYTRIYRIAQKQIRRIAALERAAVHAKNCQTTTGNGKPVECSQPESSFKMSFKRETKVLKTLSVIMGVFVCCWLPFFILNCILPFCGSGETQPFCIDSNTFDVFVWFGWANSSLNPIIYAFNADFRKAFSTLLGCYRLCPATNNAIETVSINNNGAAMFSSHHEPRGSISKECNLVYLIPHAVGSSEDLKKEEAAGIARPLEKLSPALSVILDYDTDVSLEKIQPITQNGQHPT
# Type: functional, cell-based

Here is how some compounds turned out for AC50.
CCCCc1ncc(/C=C(\Cc2cccs2)C(=O)O)n1Cc1ccc(C(=O)O)cc1 = > 30 µM
CC[C@@H](C(N)=O)N1CCCC1=O = > 30 µM

Short answer for C=CCc1ccccc1OCC(O)CNC(C)C (stereo not given) : AC50 was > 30 µM

Recorded AC50 (compound C=CCN1C[C@H](C(=O)N(CCCN(C)C)C(=O)NCC)C[C@@H]2c3cccc4[nH]cc(c34)C[C@H]21 ): 0.0367 µM

Recorded AC50 (compound COC(=O)C1=C(C)NC(C)=C(C(=O)OC(C)(C)CN(C)CCC(c2ccccc2)c2ccccc2)C1c1cccc([N+](=O)[O-])c1 (stereo not given) ): > 30 µM

###

Below are AC50 values measured for Muscarinic acetylcholine receptor M3 (Homo sapiens, UniProt P20309).

Consider the following illustrative entries.
CN1CCN(CC/C=C2/c3ccccc3Sc3ccc(S(=O)(=O)N(C)C)cc32)CC1 [THIOTHIXENE] = > 10 µM
CC(C(=O)O)c1ccc(N2Cc3ccccc3C2=O)cc1 (stereo not given) [INDOPROFEN] = > 30 µM
CC(C)C(=O)c1c(C(C)C)nn2ccccc12 [IBUDILAST] = > 30 µM
CCOC(=O)[C@H](CCc1ccccc1)N[C@@H](C)C(=O)N1C(=O)N(C)C[C@H]1C(=O)O = > 30 µM

Simply: CCCCCCOc1ccccc1C(N)=O [EXALAMIDE] , Muscarinic acetylcholine receptor M3 (Homo sapiens, UniProt P20309), AC50 = > 30 µM

###

# Target Or Test System: Voltage-gated inwardly rectifying potassium channel KCNH2 (Homo sapiens, UniProt Q12809); note: assay procedure not described here
# Sequence (Q12809 whole entry): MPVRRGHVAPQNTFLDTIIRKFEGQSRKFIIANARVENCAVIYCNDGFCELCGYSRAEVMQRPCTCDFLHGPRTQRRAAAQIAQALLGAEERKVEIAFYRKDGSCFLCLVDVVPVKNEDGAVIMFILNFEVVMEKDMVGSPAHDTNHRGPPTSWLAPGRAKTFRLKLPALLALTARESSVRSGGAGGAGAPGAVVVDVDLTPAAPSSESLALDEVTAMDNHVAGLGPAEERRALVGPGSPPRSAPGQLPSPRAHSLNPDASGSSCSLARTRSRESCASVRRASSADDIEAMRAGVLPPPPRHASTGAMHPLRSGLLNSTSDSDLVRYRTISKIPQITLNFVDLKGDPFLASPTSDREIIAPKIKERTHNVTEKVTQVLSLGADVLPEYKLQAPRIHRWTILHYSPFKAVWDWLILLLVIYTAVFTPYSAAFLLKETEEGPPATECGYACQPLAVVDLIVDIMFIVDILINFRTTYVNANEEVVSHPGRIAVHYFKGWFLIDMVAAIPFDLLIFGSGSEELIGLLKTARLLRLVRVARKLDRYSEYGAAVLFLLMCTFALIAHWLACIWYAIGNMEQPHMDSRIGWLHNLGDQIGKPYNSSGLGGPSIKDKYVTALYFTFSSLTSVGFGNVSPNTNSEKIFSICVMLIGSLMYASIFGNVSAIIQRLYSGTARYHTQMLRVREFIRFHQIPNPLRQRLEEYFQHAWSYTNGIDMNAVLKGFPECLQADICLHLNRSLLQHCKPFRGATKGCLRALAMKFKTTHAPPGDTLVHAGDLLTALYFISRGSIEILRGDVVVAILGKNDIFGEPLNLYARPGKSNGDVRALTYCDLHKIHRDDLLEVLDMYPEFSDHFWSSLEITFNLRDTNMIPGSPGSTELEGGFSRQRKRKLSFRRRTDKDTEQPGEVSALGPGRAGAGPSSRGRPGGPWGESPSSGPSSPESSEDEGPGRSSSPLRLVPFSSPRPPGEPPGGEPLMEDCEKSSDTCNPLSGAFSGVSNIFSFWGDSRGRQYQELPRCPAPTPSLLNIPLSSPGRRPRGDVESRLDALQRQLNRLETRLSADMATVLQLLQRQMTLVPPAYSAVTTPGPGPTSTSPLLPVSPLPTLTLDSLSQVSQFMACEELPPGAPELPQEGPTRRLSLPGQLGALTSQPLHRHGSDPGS
# Format: functional
# Condition Info: read-out: AC50; note: assay procedure not described here
Below: a set of entries, each annotated with reported AC50.

Guide cases for AC50, answers given:
Nc1ccncc1N = > 30 µM
COc1cccc(C2(O)CCCCC2CN(C)C)c1 (stereo not drawn) = > 30 µM
C[C@H]1CNCCc2ccc(Cl)cc21 = 6.5 µM

CCOC(=O)[N-]c1cn(N2CCOCC2)n[o+]1 on Voltage-gated inwardly rectifying potassium channel KCNH2 (Homo sapiens, UniProt Q12809) gives AC50 = > 30 µM

Record CC(=O)NCCCS(=O)(=O)O [ACAMPROSATE] ; system Voltage-gated inwardly rectifying potassium channel KCNH2 (Homo sapiens, UniProt Q12809); AC50 = > 30 µM

// returns AC50 for Nc1nc(/C(=C/CC(=O)O)C(=O)N[C@@H]2C(=O)N3C(C(=O)O)=CCS[C@H]23)cs1 with Voltage-gated inwardly rectifying potassium channel KCNH2 (Homo sapiens, UniProt Q12809); value = > 30 µM

Response field AC50 (Voltage-gated inwardly rectifying potassium channel KCNH2 (Homo sapiens, UniProt Q12809)) for item CC(C)C(=O)c1c(C(C)C)nn2ccccc12 : > 30 µM

Lab note: compound CCN(CC)C(=O)N[C@H]1C[C@@H]2c3cccc4[nH]cc(c34)C[C@H]2N(C)C1 [TERGURIDE] tested on Voltage-gated inwardly rectifying potassium channel KCNH2 (Homo sapiens, UniProt Q12809); recorded AC50 was 18 µM

I looked up C/C(O)=C(\C#N)C(=O)Nc1ccc(C(F)(F)F)cc1 [TERIFLUNOMIDE] and its AC50 for Voltage-gated inwardly rectifying potassium channel KCNH2 (Homo sapiens, UniProt Q12809) was > 30 µM

Cc1c(OCC(F)(F)F)ccnc1C[S+]([O-])c1nc2ccccc2[nH]1 (stereo not drawn) tested on Voltage-gated inwardly rectifying potassium channel KCNH2 (Homo sapiens, UniProt Q12809) gave AC50: > 30 µM

Item CCC(C)n1ncn(-c2ccc(N3CCN(c4ccc(OCC5COC(Cn6cncn6)(c6ccc(Cl)cc6Cl)O5)cc4)CC3)cc2)c1=O (stereo not drawn) was tested on Voltage-gated inwardly rectifying potassium channel KCNH2 (Homo sapiens, UniProt Q12809); the reported AC50 is > 30 µM

The observed AC50 for Cc1cn([C@H]2C=C[C@@H](CO)O2)c(=O)[nH]c1=O when tested with Voltage-gated inwardly rectifying potassium channel KCNH2 (Homo sapiens, UniProt Q12809) stands at > 30 µM

CN(C)CCC=C1c2ccccc2C(C)(C)c2ccccc21 on Voltage-gated inwardly rectifying potassium channel KCNH2 (Homo sapiens, UniProt Q12809) gives AC50 = 4.13 µM

Record C[C@@H]1O[C@@H](O[C@@H]2C=C3CC[C@@H]4[C@H](CC[C@]5(C)[C@@H](c6ccc(=O)oc6)CC[C@]45O)[C@@]3(C)CC2)[C@H](O)[C@H](O)[C@H]1O ; system Voltage-gated inwardly rectifying potassium channel KCNH2 (Homo sapiens, UniProt Q12809); AC50 = > 30 µM

For the compound C=CCN1C[C@H](C(=O)N(CCCN(C)C)C(=O)NCC)C[C@@H]2c3cccc4[nH]cc(c34)C[C@H]21 , the measured AC50 on Voltage-gated inwardly rectifying potassium channel KCNH2 (Homo sapiens, UniProt Q12809) was 7.68 µM

Summary line: COc1cc([C@@H]2c3cc4c(cc3[C@H](O)[C@H]3COC(=O)[C@H]23)OCO4)cc(OC)c1OC , Voltage-gated inwardly rectifying potassium channel KCNH2 (Homo sapiens, UniProt Q12809), reported AC50 = > 30 µM

Response field AC50 (Voltage-gated inwardly rectifying potassium channel KCNH2 (Homo sapiens, UniProt Q12809)) for item CCN(CC)CCNc1ccc(CO)c2sc3ccccc3c(=O)c12 : 3.6 µM

The compound Cn1nnc2c(C(N)=O)ncn2c1=O [TEMOZOLOMIDE] on Voltage-gated inwardly rectifying potassium channel KCNH2 (Homo sapiens, UniProt Q12809): AC50 was > 30 µM

The measured AC50 that Nc1ccn([C@H]2CC[C@@H](CO)O2)c(=O)n1 showed for Voltage-gated inwardly rectifying potassium channel KCNH2 (Homo sapiens, UniProt Q12809) is > 30 µM
